Test system: HS 578T breast
Assay: NCI-60 one-dose screen, 48 h
Details: 10 µM unless noted
About 83,000 compounds went through this panel and 20% of them were active in at least one assay; those are over-represented in the sample as a whole. Activity calls are given as the source filed them. Rule for the calls: active = growth percent below 10; inactive = the rest.
One label from this list, please: active, inactive

Inquiry: Field: outcome | Entry: Cc1ccc(-c2nc(N3CCNCC3)c3oc(-c4ccccc4)nc3n2)cc1
Reply text: active

Inquiry: Further, for C/C(=N\NC(=O)c1ccccc1O)c1cccc(/C(C)=N/NC(=O)c2ccccc2O)n1 ?
Reply text: inactive

Inquiry: Further, for COc1ccc2c(c1)c(-c1noc(C(=O)c3cn(C)c4ccc(Br)cc34)n1)cn2C ?
Reply text: inactive

Inquiry: Further, for COc1ccc2c(c1)[n+]([O-])c(C(=O)/C=C/C=C(\Cl)c1cc(OC)c(OC)c(OC)c1)c(C)[n+]2[O-] ?
Reply text: inactive

Inquiry: Further, for COc1ccc(OC)c(C(=O)/C=C/c2cc3c(c(OC)c2OC)OCO3)c1 ?
Reply text: inactive

The reported measurements were obtained from PubChem BioAssay (NCI).
